Taken from patent US20190233494A1.

Give measured EMax, OVCAR 5 cells (cAMP) for each item. Keep answers brief.
Target: T1, RXFP1 receptor (endogenous, on OVCAR5 cells) (UniProt Q9HBX9 1-757, limits assumed)
T1 sequence (looked up): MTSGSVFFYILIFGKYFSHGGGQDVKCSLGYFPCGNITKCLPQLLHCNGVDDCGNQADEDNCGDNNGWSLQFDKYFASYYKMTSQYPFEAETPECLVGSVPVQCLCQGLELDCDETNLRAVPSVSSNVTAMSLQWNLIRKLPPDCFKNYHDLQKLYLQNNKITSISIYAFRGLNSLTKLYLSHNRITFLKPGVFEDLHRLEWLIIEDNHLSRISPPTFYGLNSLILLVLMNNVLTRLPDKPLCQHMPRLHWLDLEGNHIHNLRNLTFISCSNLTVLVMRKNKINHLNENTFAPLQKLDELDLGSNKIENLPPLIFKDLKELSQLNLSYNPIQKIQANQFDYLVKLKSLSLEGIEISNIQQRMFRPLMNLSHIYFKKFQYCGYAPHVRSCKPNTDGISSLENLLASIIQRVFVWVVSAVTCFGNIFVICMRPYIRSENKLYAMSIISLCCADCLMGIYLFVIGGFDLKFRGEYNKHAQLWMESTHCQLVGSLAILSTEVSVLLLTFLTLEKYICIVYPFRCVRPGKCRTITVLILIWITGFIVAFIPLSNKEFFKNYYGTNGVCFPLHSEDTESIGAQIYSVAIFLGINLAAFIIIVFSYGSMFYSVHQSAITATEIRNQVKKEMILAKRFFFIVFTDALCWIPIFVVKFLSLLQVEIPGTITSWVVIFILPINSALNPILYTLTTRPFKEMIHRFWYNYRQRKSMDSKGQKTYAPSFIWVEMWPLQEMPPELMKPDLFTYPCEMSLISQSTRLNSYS
Test: cell-based or functional assay
Starred links: 1 amine or outer side, 2 acyl side, 3 side chain; linkers in the order of their positions; H or OH if unused. Non-standard residues stand in square brackets, D forms with d. Groups on a side chain read outwards from the residue. *: point of attachment. TTDS = 4-[3-[2-[2-(3-aminopropoxy)ethoxy]ethoxy]propylamino]-4-oxo-butanoyl; γGlu = O=C(O)[C@H](CCC(=O)[*:2])N[*:1]; Stearoyl = CCCCCCCCCCCCCCCCCC(=O)*; Palmitoyl = CCCCCCCCCCCCCCCC(=O)*; Aib = CC(C)(N)C(=O)O
I only need the number, in %, no unit after it.

IN: Consider the binder Ac-LEGREKVRAK(Ac)I[Aib][Aib]EGK([TTDS-TTDS-γGlu-γGlu-γGlu-Stearoyl])STFS[Aib]RKK(Ac)-NH2 [peptide of SEQ ID NO: 60] and give its measured EMax, OVCAR 5 cells (cAMP).
OUT: 95

IN: EMax, OVCAR 5 cells (cAMP) for Ac-LEGREKVRAK(Ac)I[Aib][Aib]EGK([TTDS-TTDS-TTDS-γGlu-γGlu-γGlu-γGlu-Palmitoyl])STWS[Aib]RKK(Ac)-NH2 [peptide of SEQ ID NO: 62] ?
OUT: 98
